# TARGET UNDER TEST: Bromodomain-containing protein 4 (Homo sapiens, UniProt O60885, Y390A)
# PROTOCOL TEXT: Displacement of Alexa Fluor 647-labeled ligand from BRD4 BD1 Y390A mutant (1 to 477 residue) (unknown origin) measured after 30 mins by TR-FRET assay
PROPERTY: IC50

Ask: In one line, give reported IC50 of the entry C[C@H]1CCN(S(=O)(=O)c2cc(NC(=O)Cn3c(=O)[nH]c4ccccc43)ccc2Br)C1 .
Reply: > 50.1 µM

Ask: In one line, give reported IC50 of the entry CC(=O)Nc1ccc(Cl)c(S(=O)(=O)N2CCCC2)c1 .
Reply: 200 µM

Ask: In one line, give reported IC50 of the entry C[C@H]1CCN(S(=O)(=O)c2cc(NC(=O)CN3C(=O)N[C@@](C)(C4CC4)C3=O)ccc2Br)C1 .
Reply: > 50.1 µM

Ask: In one line, give reported IC50 of the entry CC1(C)NC(=O)N(CC(=O)Nc2ccc(Cl)c(S(=O)(=O)N3CCCC3)c2)C1=O .
Reply: > 50.1 µM

Ask: In one line, give reported IC50 of the entry C[C@H]1CCN(S(=O)(=O)c2cc(NC(=O)Cn3nncc3CN(C)C)ccc2Br)C1 .
Reply: > 50.1 µM

Ask: In one line, give reported IC50 of the entry C[C@H]1CCN(S(=O)(=O)c2cc(NC(=O)Cn3nnc4c3CCN(C)C4)ccc2Br)C1 .
Reply: > 50.1 µM

Ask: In one line, give reported IC50 of the entry O=C(CN1C(=O)CNC1=O)Nc1ccc(Cl)c(S(=O)(=O)N2CCC(C3CC3)C2)c1 (racemic) .
Reply: > 50.1 µM

Ask: In one line, give reported IC50 of the entry CN1CCc2c(nnn2CC(=O)Nc2ccc(Br)c(S(=O)(=O)N3CC[C@H](C4CC4)C3)c2)C1 .
Reply: 12.6 µM

// moving on: another record for IC50
Ask: In one line, give reported IC50 of the entry COCc1cnnn1CC(=O)Nc1ccc(Br)c(S(=O)(=O)N2CC[C@H](C)C2)c1 .
Reply: 50.1 µM
